# Tested target: SARS-CoV Spike protein (full length Spike, coupled to optically encoded beads) (SARS-CoV, UniProt P59594 14-1190)
Recorded endpoint: median fluorescence, fold over isotype
A complete answer gives the number followed by the unit.

# Binder, median fluorescence, fold over isotype
data = [
    ("anti-SARS-CoV-2 antibody 423 (antibody, V domains shown) VH: EVQLVESGGGLIQPGGSLRISCAASGFTVRNNHMSWVRQAPGKGLEWVSVFYRGGTTYYADSVKGRFTISRDDSKNTVDLQMNSLRGEDTAVYYCARGLSVAASGYFDCWGQGTLVTVSS VL: DIQMTQSPSSVSASVGDTVTITCRANQGISSWLAWYQQVPGKAPELLIYATSTLQSGVPSRFSGSGSGTDFTLTISSLQPEDFATYYCQQANSFPFTFGPGTKVDIK", "1.23 fold over isotype"),
]

Please look at the following binder next.
Bench note: what median fluorescence, fold over isotype did anti-SARS-CoV-2 antibody 395 (antibody, V domains shown) VH: QVQLVQSGSELKKPGASVKLSCQASGYTFSNHAMNWVRQAPGQGLEWMGWINTNTGNPTYAQGFTGRFVFSLDTSVGTAYLHISSLKAEDTAFYYCARASARPGVATNLDFWGQGTLVVVSS VL: DIQMTQSPSSLSASVGDRVTITCRTSQNIDNYLNWYQQKPGKAPNLLIYAASRLHSGVPSRFSGSGSGTDFTLIISSLQPEDLATYYCQQSYSNPLTFGPGTKVDIR show?
1.16 fold over isotype
